test system: Thyroperoxidase (TPO), gene 54314; assay: CCTE_Simmons_AUR_rTPO: CCTE's Amplex UltraRed Assay for Thyroperoxidase (TPO) Inhibition, Simmons Lab (AID 2283662);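 further: potency for loss of signal meaning inhibition of peroxidase activity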
Activity calls are given as the source filed them. How the source made its calls: active means hit-call score of the fitted dose curve at least 0.9, where 1 is the maximum; inconclusive means response in the unintended direction; inactive means score below 0.9.
EXPERIMENTAL ENDPOINT: AC50

> print(dat)
                              record.smiles            result
1         CCc1cc(C(C)(C)C)c(O)c(C(C)(C)C)c1  4.83 µM (active)
2  Cc1ccc(S(=O)(=O)Oc2ccc(N=Nc3ccc(-c4ccc(N=Nc5c(O)ccc6cc(S(=O)(=O)O)cc(S(=O)(=O)O)c56)c(C)c4)cc3C)cc2)cc1  18.2 µM (active)
3       Cc1cc(C)nc(NS(=O)(=O)c2ccc(N)cc2)n1  14.3 µM (active)

----------
read-out: Vascular cell adhesion molecule 1 (VCAM1), VCAM1 (gene 7412); assay: BSK_4H_VCAM1: BioMAP Diversity Plus: 4H Assay for Vascular cell adhesion molecule 1 (VCAM1) Biomarker Activity (AID 2283033); conditions: primary human endothelial cells (HUVEC); actives raise or lower the signal;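 on Outcome: cell-surface VCAM-1 protein measured by ELISA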
Activity calls are given as the source filed them. How the source made its calls: active means hit-call score of the fitted dose curve at least 0.9, where 1 is the maximum; inactive means score below 0.9.
Outcome codes: true (active), false (inactive)

> print(dat)
                              record.smiles  label.value
1  c1ccc2cc(Nc3ccc(Nc4ccc5ccccc5c4)cc3)ccc2c1        false
2                               O=CN1CCOCC1        false
3      COc1ccc(OC)c(N=Nc2c(O)ccc3ccccc23)c1         true
4  Cc1cc(CCC(=O)OCCOCCOCCOC(=O)CCc2cc(C)c(O)c(C(C)(C)C)c2)cc(C(C)(C)C)c1O        false
5  CC(=O)c1c(C)c([N+](=O)[O-])c(C(C)(C)C)c([N+](=O)[O-])c1C        false

----------
read-out: Monokine induced gamma interferon (MIG), CXCL9 (gene 4283); assay: BSK_SAg_MIG: BioMAP Diversity Plus: SAg Assay for Monokine induced gamma interferon (MIG) Biomarker Activity (AID 2283092); conditions: primary human HUVEC with PBMC; actives raise or lower the signal
Calls of active or inactive are those of the source. Rule for the calls: active = hit-call score of the fitted dose curve at least 0.9, where 1 is the maximum; inactive = score below 0.9.
Outcome codes: yes (active), no (inactive)

> print(dat)
                                    compound  label.value
 1  COc1ccc(CCN2CCC(Nc3nc4ccccc4n3Cc3ccc(F)cc3)CC2)cc1           no
 2  C[C@@H]1CCN(C(=O)[C@H](CCCN=C(N)N)NS(=O)(=O)c2cccc3c2NC[C@H](C)C3)[C@@H](C(=O)O)C1           no
 3  C=C(C)C(=O)OCC(CC)(COC(=O)C(=C)C)COC(=O)C(=C)C           no
 4                       c1ccc(Oc2ccccc2)cc1           no
 5  CC(=O)C1(C)CC2=C(CCCC2(C)C)CC1C (stereo not drawn)          yes
 6  CC(=O)c1c(C)c([N+](=O)[O-])c(C(C)(C)C)c([N+](=O)[O-])c1C           no
 7  c1ccc2cc(Nc3ccc(Nc4ccc5ccccc5c4)cc3)ccc2c1           no
 8                                    IC(I)I           no
 9                     CCCCCC(C=O)=Cc1ccccc1           no
10  O=C1OC[C@H](Cc2cccc(O)c2)[C@H]1Cc1cccc(O)c1           no
11                               O=CN1CCOCC1           no
12  CS(=O)(=O)c1ccc(C2=C(c3ccccc3)C(=O)OC2)cc1           no
13               CCCCN(CCCC)C(=O)N(CCCC)CCCC           no
14  CC1(C)CCC[C@]2(C)[C@H]3CCO[C@]3(C)CC[C@@H]12           no
15                      CC=Cc1ccc(OCC)c(O)c1           no
16        CCCCCCC(CO)CCCC (stereo not drawn)           no
17  Oc1c(Cl)cc(Cl)c(Cl)c1Cc1c(O)c(Cl)cc(Cl)c1Cl          yes
18                     CN(C)C(=S)SC(=S)N(C)C           no
19      COc1ccc(OC)c(N=Nc2c(O)ccc3ccccc23)c1           no
20  CCCCCCCCCCCCCCCC(=O)OC/C=C(C)/C=C/C=C(C)/C=C/C1=C(C)CCCC1(C)C           no
21   C1=CC2C3C=CC(C3)C2C1 (stereo not drawn)           no
22          O=C1c2ccccc2C(=O)c2c(O)ccc(O)c21           no
23        CCOC(=O)C(C#N)=C(c1ccccc1)c1ccccc1           no
